# tested_target: T1, Human IL-23 (human, UniProt Q9NPF7 20-189; P29460 23-328)
# T1 construct: Heterodimer of p40 and p19; For the crystal it was secreted from insect cells from a bi-cistronic construct; also called interleukin 23; human recombinant IL-23
# T1 sequence (looked up) 1: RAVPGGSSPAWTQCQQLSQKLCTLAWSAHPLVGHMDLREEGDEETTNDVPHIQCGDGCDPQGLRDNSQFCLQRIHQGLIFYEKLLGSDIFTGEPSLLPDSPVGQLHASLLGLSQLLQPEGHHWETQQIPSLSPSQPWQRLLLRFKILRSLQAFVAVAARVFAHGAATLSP
# T1 sequence (looked up) 2: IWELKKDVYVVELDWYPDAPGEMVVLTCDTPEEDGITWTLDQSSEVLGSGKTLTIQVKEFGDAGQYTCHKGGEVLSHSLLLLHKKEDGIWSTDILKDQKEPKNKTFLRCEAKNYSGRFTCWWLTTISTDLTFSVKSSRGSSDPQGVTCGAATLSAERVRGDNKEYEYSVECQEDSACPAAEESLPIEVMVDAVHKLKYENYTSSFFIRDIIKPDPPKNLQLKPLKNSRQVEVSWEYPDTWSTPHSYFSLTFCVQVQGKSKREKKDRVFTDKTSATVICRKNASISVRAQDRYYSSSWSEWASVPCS
# protocol: competitive ELISA: Adnectin pre-incubated with 1 nM IL-23, binding to coated IL-23R-Fc
recorded_metric: IC50 (nM)

Example results:
1454B08 T35→D (designed binder, Point variant of 1454B08; also called Thr35→Asp) MGVSDVPRDLEVVAATPTSLLISWEHDYPYRRYYRIDYGETGGNSPVQEFTVPKDVDTATISGLKPGVDYTITVYAVTSSYKYDMQYSPISINYRTEIDKPSQHHHHHH = 49
1454B08 V75→K (designed binder, Point variant of 1454B08) MGVSDVPRDLEVVAATPTSLLISWEHDYPYRRYYRITYGETGGNSPVQEFTVPKDVDTATISGLKPGVDYTITVYAKTSSYKYDMQYSPISINYRTEIDKPSQHHHHHH = 5.7
1454B08 T35→Q (designed binder, Point variant of 1454B08) MGVSDVPRDLEVVAATPTSLLISWEHDYPYRRYYRIQYGETGGNSPVQEFTVPKDVDTATISGLKPGVDYTITVYAVTSSYKYDMQYSPISINYRTEIDKPSQHHHHHH = 1

A = 1454B08 Y73→N (designed binder, Point variant of 1454B08) MGVSDVPRDLEVVAATPTSLLISWEHDYPYRRYYRITYGETGGNSPVQEFTVPKDVDTATISGLKPGVDYTITVNAVTSSYKYDMQYSPISINYRTEIDKPSQHHHHHH
B = 1454B08 T35→E (designed binder, Point variant of 1454B08) MGVSDVPRDLEVVAATPTSLLISWEHDYPYRRYYRIEYGETGGNSPVQEFTVPKDVDTATISGLKPGVDYTITVYAVTSSYKYDMQYSPISINYRTEIDKPSQHHHHHH
INPUT: Select one. Lower IC50: A or B Field: selected label. Fill in the label of the entry you choose.
OUTPUT: B

A = 1454B08 Y73→R (designed binder, Point variant of 1454B08) MGVSDVPRDLEVVAATPTSLLISWEHDYPYRRYYRITYGETGGNSPVQEFTVPKDVDTATISGLKPGVDYTITVRAVTSSYKYDMQYSPISINYRTEIDKPSQHHHHHH
B = 1454B08 Y28→A (designed binder, Point variant of 1454B08) MGVSDVPRDLEVVAATPTSLLISWEHDYPARRYYRITYGETGGNSPVQEFTVPKDVDTATISGLKPGVDYTITVYAVTSSYKYDMQYSPISINYRTEIDKPSQHHHHHH
INPUT: Look at A and B . Which one has the lower recorded IC50 number? Provide the label of your selected option as the answer.
OUTPUT: A
